Attribution: ChEMBL document CHEMBL1132484

Reported values of pIC50 for individual entries
# Test System: Disintegrin and metalloproteinase domain-containing protein 17 (Homo sapiens)
# Sequence (P78536 whole entry, the tested form may be a part): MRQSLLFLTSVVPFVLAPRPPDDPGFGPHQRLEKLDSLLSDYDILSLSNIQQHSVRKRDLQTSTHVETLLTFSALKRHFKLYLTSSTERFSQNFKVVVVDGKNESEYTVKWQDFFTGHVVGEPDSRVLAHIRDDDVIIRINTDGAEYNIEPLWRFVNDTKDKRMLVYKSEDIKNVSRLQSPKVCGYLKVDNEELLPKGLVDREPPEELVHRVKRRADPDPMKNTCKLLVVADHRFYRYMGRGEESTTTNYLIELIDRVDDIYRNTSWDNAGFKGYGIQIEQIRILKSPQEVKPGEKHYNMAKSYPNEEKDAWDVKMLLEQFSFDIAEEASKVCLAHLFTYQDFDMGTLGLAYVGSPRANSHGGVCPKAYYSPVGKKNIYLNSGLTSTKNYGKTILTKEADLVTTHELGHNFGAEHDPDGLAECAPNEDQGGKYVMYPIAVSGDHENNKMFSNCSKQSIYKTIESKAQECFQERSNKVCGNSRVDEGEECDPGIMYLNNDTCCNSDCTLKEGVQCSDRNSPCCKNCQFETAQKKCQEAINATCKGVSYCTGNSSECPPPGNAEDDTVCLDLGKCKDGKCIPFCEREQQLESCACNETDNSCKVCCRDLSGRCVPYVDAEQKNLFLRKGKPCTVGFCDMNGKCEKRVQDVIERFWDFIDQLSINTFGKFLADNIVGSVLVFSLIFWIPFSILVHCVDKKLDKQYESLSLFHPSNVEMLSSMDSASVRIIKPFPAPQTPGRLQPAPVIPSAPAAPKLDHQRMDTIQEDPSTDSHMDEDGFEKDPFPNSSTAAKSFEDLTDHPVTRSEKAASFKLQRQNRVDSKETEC
# Assay Procedure: Inhibitory activity against Tumor necrosis factor alpha-converting enzyme (TACE) in blood.
# Format: tissue-based
Just the number, please; pIC50 means minus log10 of the concentration in mol/L.

Below, each entry is followed by its recorded pIC50 result.
{"columns": ["Molecule", "pIC50"],
 "data": [
  ["CNC(=O)[C@@H](NC(=O)[C@H](CC(C)C)[C@H](NCc1ccc2ccccc2n1)C(=O)NO)C(C)(C)C", 9.00],
  ["CNC(=O)[C@@H](NC(=O)[C@H](CC(C)C)[C@H](NS(=O)(=O)c1ccc2ncccc2c1)C(=O)NO)C(C)(C)C", 8.80],
  ["CNC(=O)[C@@H](NC(=O)[C@H](CC(C)C)[C@H](NS(=O)(=O)c1ccc2ccccc2c1)C(=O)NO)C(C)(C)C", 9.18],
  ["CNC(=O)[C@@H](NC(=O)[C@H](CC(C)C)[C@H](Sc1ccccc1)C(=O)NO)C(C)(C)C", 6.73],
  ["CNC(=O)[C@@H](NC(=O)[C@H](CC(C)C)[C@H](Sc1ccc(C#N)cc1)C(=O)NO)C(C)(C)C", 9.20],
  ["CNC(=O)[C@H](Cc1ccccc1)NC(=O)[C@H](CC(C)C)[C@H](CSc1ccccc1)C(=O)NO", 8.74],
  ["CC1(C)SCCN(S(=O)(=O)c2ccc(Oc3ccncc3)cc2)[C@H]1C(=O)NO", 8.26],
  ["CNC(=O)[C@@H](NC(=O)C(CC(C)C)C(NS(=O)(=O)c1cc(Cl)cc(Cl)c1)C(=O)NO)C(C)(C)C (single isomer, unassigned)", 9.00],
  ["CCS[C@H](C(=O)NO)[C@@H](CC(C)C)C(=O)N[C@H](C(=O)NC)C(C)(C)C", 8.82]
]}

// next item, pIC50 requested
Which pIC50 value is on record for CNC(=O)[C@@H](NC(=O)[C@H](CC(C)C)[C@H](NC(=O)c1ccc2ncccc2c1)C(=O)NO)C(C)(C)C ?
8.02
